Numbers sourced from patent US9284358B2.

- EXPERIMENTAL_TARGET: human α9α10 nAChR (Homo sapiens, UniProt Q9GZZ6+Q9UGM1)
- Construct: expressed in transfected cells; host or cells: oocytes
- Sequence (Q9UGM1 26-479 limits assumed): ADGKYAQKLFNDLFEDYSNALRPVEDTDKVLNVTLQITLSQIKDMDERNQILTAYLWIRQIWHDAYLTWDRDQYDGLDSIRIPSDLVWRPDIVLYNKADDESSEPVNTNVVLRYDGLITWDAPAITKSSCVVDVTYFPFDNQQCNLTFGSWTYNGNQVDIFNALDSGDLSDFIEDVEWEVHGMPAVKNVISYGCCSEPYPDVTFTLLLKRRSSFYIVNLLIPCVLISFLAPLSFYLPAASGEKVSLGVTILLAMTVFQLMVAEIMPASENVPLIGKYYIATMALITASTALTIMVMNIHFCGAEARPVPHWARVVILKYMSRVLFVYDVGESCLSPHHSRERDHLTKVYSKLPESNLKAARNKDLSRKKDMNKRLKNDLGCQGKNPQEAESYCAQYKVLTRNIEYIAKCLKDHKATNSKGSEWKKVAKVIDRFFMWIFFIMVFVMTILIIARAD
- Sequence (Q9GZZ6 25-450): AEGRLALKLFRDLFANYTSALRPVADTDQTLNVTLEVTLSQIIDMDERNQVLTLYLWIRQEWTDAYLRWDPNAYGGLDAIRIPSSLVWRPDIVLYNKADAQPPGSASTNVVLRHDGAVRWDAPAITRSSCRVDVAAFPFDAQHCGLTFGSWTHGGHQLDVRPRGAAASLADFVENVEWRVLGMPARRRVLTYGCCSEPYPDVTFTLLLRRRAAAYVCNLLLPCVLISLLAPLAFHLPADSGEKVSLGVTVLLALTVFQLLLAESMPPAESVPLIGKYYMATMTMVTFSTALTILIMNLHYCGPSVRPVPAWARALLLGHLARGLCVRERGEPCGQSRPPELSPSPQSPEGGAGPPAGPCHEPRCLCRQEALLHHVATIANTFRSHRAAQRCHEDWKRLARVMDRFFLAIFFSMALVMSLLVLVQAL
- PROCEDURE_SUMMARY: cell-based

[
  {
    "STRUCTURE_NOTATION": "N=C(N)NCCC[C@H](NC(=O)[C@@H]1CSSC[C@@H]2NC(=O)[C@@H](NC(=O)CN)CSSC[C@H](NC(=O)[C@H](CCCNC(=N)N)NC(=O)[C@@H]3CCCN3C(=O)[C@H](CC(=O)O)NC(=O)[C@H](CO)NC2=O)C(=O)N[C@@H](CCCNC(N)=O)C(=O)N[C@@H](Cc2ccc(O)cc2)C(=O)N[C@@H](CCCNC(=N)N)C(=O)N1)C(=O)O",
    "VALUE_UNIT": "nM",
    "IC50": 416
  },
  {
    "STRUCTURE_NOTATION": "C[C@@H](O)[C@@H]1NC(=O)[C@@H]2CSSC[C@@H](C(=O)N[C@@H](CCCNC(=N)N)C(=O)O)NC(=O)[C@H](CCCNC(=N)N)NC(=O)[C@H](Cc3ccc(O)cc3)NC(=O)[C@H](CCCNC(=N)N)NC(=O)[C@H](CSSC[C@H](NC(=O)CN)C(=O)N2)NC(=O)[C@H](CCCNC(=N)N)NC(=O)[C@@H]2CCCN2C(=O)[C@H](CC(=O)O)NC1=O",
    "VALUE_UNIT": "nM",
    "IC50": 281
  }
]

----------
- EXPERIMENTAL_TARGET: human α9α10 nAChR (Homo sapiens, UniProt Q9GZZ6+Q9UGM1)
- PROCEDURE_SUMMARY: cell-based
pIC50: −log10 of the molar value. Positions of bridges follow the written chain, without caps; N, C: chain ends. Residues, ends and D or L forms follow the SMILES beside them.
Reported pIC50 values for a set of compounds
PROPERTY_LABEL: pIC50

[
  {
    "COMPOUND": "N=C(N)NCCC[C@H](NC(=O)[C@@H]1CSSC[C@@H]2NC(=O)[C@@H](NC(=O)CN)CSSC[C@H](NC(=O)[C@H](CCCNC(=N)N)NC(=O)[C@@H]3CCCN3C(=O)[C@H](CC(=O)O)NC(=O)[C@H](CO)NC2=O)C(=O)N[C@@H](CCCNC(=N)N)C(=O)N[C@@H](Cc2ccc(O)cc2)C(=O)N[C@@H](CCC(N)=O)C(=O)N1)C(=O)O [SEQ ID NO:32] (H-GCCSDPRCRYQCR-OH; disulfide 2-8, 3-12)",
    "RESULT_COMPARATOR": "=",
    "NUMBER": 6.69
  },
  {
    "COMPOUND": "N=C(N)NCCCC[C@@H]1NC(=O)[C@@H]2CSSC[C@H](NC(=O)CN)C(=O)N[C@@H](CSSC[C@@H](C(=O)N[C@@H](CCCNC(=N)N)C(=O)O)NC(=O)[C@H](CCCNC(=N)N)NC(=O)[C@H](Cc3ccc(O)cc3)NC1=O)C(=O)N[C@@H](CO)C(=O)N[C@@H](CC(=O)O)C(=O)N1CCC[C@H]1C(=O)N[C@@H](CCCNC(=N)N)C(=O)N2 [SEQ ID NO:11]",
    "RESULT_COMPARATOR": "<",
    "NUMBER": 6.00
  },
  {
    "COMPOUND": "N=C(N)NCCC[C@H](NC(=O)[C@@H]1CSSC[C@@H]2NC(=O)[C@@H](NC(=O)CN)CSSC[C@H](NC(=O)[C@H](CCCNC(=N)N)NC(=O)[C@@H]3CCCN3C(=O)[C@H](CC(=O)O)NC(=O)[C@H](CO)NC2=O)C(=O)N[C@@H](CCCNC(=N)N)C(=O)N[C@@H](Cc2c[nH]c3ccccc23)C(=O)N[C@@H](CCCNC(=N)N)C(=O)N1)C(=O)O [SEQ ID NO:16] (H-GCCSDPRCRWRCR-OH; disulfide 2-8, 3-12)",
    "RESULT_COMPARATOR": "=",
    "NUMBER": 6.57
  }
]
